Molecular target: PDGF-BB (platelet-derived growth factor BB) (Homo sapiens) (UniProt P01127)
Sequence (P01127 82-190): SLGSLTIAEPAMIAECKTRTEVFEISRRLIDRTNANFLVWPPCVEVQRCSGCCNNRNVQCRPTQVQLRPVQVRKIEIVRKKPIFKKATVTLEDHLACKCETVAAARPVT
Experiment: filter
Conditions: Bn-dU; C3 at 27
pKd: −log10 of the molar value.
observed_property: pKd

Measured pKd of TTACGACTACGTTACACGCGTTTATACG [4149-8_90] : < 8.00

* * *

System: VEGF-121 (Homo sapiens), P15692-9
Sequence: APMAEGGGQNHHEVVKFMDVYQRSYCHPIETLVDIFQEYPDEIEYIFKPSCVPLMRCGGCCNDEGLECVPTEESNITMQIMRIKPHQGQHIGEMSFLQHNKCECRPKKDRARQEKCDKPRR
Assay: filter
Conditions: P=Nap-dU; 2'-OMe A19
observed_property: Kd (pM)
Could you give me the number in pM? Just the number is fine.

Measured Kd of AGCCGTTCAAGTGCTTGTAGGATTTAAATGGA [4867-31_83] : 100
